Hey, just so you know, these numbers are from PubChem BioAssay AID1159506.

# assayProtocol: Identification of proteins required for the processing of the EWS-FLI1 nascent transcript;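 further: robust z of luciferase light less the median z of siRNAs with the same seed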
# assaySetup: TC32 Ewing sarcoma NR0B1-luc vs CMV-luc, 48 h; screened at 20 nM (by protocol)
# Procedure: Ewing sarcoma (ES) cells depend on the EWS-FLI1 fusion transcription factor for cell survival. […] Luciferase activity was assessed 48 hours post siRNA-transfection. Twenty microl of serum-free media containing Lipofectamine RNAiMax (0.05 microl) was added to wells containing siRNA (0.8 pmol). […] Luciferase expression was measured using OneGlo (Promega, Madison, WI). […]
Whole data set: some 59,000 sequences, median the read-out near -0.00055, cut for the lowest 2% near -2. The entries come from a sample that favours the lowest values as a whole.
measurementType: seed-corrected z-score
Lab note: jot down the number only; don't add units.

Request: State the recorded seed-corrected z-score for this entry: UAAGGUUGGUGACUGGAGA against MUC6
Response: -0.303

Request: // seed-corrected z-score lookup, key: UCCUUUACCGAUUUCAGUU against XRCC3
Response: -0.609

Request: For the sequence shown here, UAUCAGACAAUUCAUCCGG against LONRF2 , give the reported seed-corrected z-score.
Response: -0.662

Request: Suppose we examine the sequence UUCGGAACCGGAGAUCCCA against RIPK4 ; what seed-corrected z-score value has been reported?
Response: -0.395

Request: I am curious: what seed-corrected z-score value has been reported for UCUGGUUCUUUGUAAAGGC against S100A11P1 ?
Response: -2.25

Request: What seed-corrected z-score value was documented for this sequence, UUCGUGACUGUCAUCAUCC against CARD11 ?
Response: 0.437

Request: Which value of seed-corrected z-score has been reported for AUAGCUGUGAGACAUCAGG against PRCD in the records?
Response: -2.08

Request: Which value of seed-corrected z-score has been reported for AUAUCUAUAAUACCCUCCG against APIP in the records?
Response: 0.416

Request: Form field: reported seed-corrected z-score of UGAUGGUCAACUUGAUGCC against LCK
Response: -4.01

Request: # input sequence: UAGCUUCAAUACUUCAUCC against LRRC27 ; wanted: its seed-corrected z-score
Response: -0.986

Request: // returns reported seed-corrected z-score for input AAAGGUAGAAAGAAGGACU against ZDHHC8P1
Response: -0.722

Request: What seed-corrected z-score value was documented for this sequence, UAUAGUGAAGAGAUAUGCC against ADGRL2 ?
Response: 0.229

Request: Query: seed-corrected z-score; subject: UUUCCAAUAUUUGAAGGUG against IFNK
Response: -0.532

Request: Looking for the measured seed-corrected z-score of AUAGGGCACAUCUUGUAGG against CSDC2 , can you help?
Response: 0.0846

Request: Find the recorded seed-corrected z-score belonging to UUCGGUACACUCAUACGGC against ZNF300 and report it.
Response: 0.363

Request: Requested field: seed-corrected z-score. Item: UAAGUACUCUCAACACUGC against PIN4P1
Response: 0.00579

Request: Reported seed-corrected z-score, sequence UGGAUAGCGGUCCUCAUCC against IL17C : ____
Response: 1

---

Record form. Attribute: seed-corrected z-score. Fill in for each entry.
# assayProtocol: Identification of proteins required for the processing of the EWS-FLI1 nascent transcript;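 further: robust z of luciferase light less the median z of siRNAs with the same seed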
# assaySetup: TC32 Ewing sarcoma NR0B1-luc vs CMV-luc, 48 h; screened at 20 nM (by protocol)
Whole data set: some 59,000 sequences, median the read-out near -0.00055, cut for the lowest 2% near -2. The entries come from a sample that favours the lowest values as a whole.
Would you mind answering with just the numeric figure?

Request: // returns reported seed-corrected z-score for input UGAUCUUAUAGUAAUCAGG against BRD4
Response: -2.52

Request: Any idea what seed-corrected z-score was measured for UCGUUGUAUACUUUGGUGC against PRKAR2B ?
Response: -0.139

Request: Given AAAUAUCCCAUAAUCAGUG against LYZ , state its recorded seed-corrected z-score.
Response: -0.541

Request: I'd like to know its seed-corrected z-score. The sequence in question is UGUCGUUCAAGGGUCUUCC against IFNE
Response: -0.372

Request: Need seed-corrected z-score of UCCGGAUAUACUGUGCUUC against PCMTD2 , thanks.
Response: 0.0601

Request: Using the record for UUCGUUAGGUUUCCUUUCG against HIVEP2 , report its seed-corrected z-score.
Response: -0.393

Request: Which seed-corrected z-score is reported for this sequence? UAUUGUUAAGGACUUUAAC against DNAJB6
Response: 0.648

Request: Tell me the measured seed-corrected z-score of UAUUAUCCAGGAUUAAUUC against TMED5 , please.
Response: 0.444

Request: Request the reported seed-corrected z-score associated with UUUUGGACCGCUGCACCUG against CBY3
Response: 0.744

Request: Quick one: seed-corrected z-score of AAACCUGCUAUAUCACUCC against ATAD1 ?
Response: 0.174

Request: Param item = ACUAGAAUCAAUAAGGAUG against TMEM243 ; retrieve measured seed-corrected z-score.
Response: -0.708

Request: Dear colleague, I am looking for the recorded seed-corrected z-score of the following sequence: UAAGGGUCCUUCCAUGGCC against PVRIG
Response: 0.201

Request: Endpoint output: seed-corrected z-score of UUCGCAAUGUUGGUUCACC against TEX15 . Value?
Response: -0.211

Request: Could you share which seed-corrected z-score value was measured for UCGGUAACAAAAAUUAGUG against RNF217 ?
Response: 0.42

Request: GET /values?readout=seed-corrected z-score&item= AAACGAUCAUGGUCUCUGC against COPA
Response: -3.42

Request: Which seed-corrected z-score is listed for UACGAAUCAAACCAAGAUC against RASGRP3 ?
Response: -0.4

Request: What does the record list as seed-corrected z-score for UACCUUAACCAUCCGAUGC against WDR6 ?
Response: 0.132

Request: What measured seed-corrected z-score goes with UCCCGGUACAUGUUGUGGG against RPL18A ?
Response: -2.34

Request: For the sequence shown here, AGGGUAUUUACCUUCUUGC against LOC729696 , give the reported seed-corrected z-score.
Response: -2.56

Request: # get_value(readout='seed-corrected z-score', item= AAUCUAAUAGGAUUUGUUA against CTBP2 )
Response: -0.167

Request: I would be grateful if you could share the reported seed-corrected z-score for UCGCUGAUCAGCAUGACCU against ITFG2 .
Response: -0.4

Request: Please report the recorded seed-corrected z-score for UGAAGGUUCAGAGUGCAAC against ISG20L2 .
Response: -0.949

Request: Which value of seed-corrected z-score has been reported for UUUCUUCAAGGCAGUUUGC against SRGN in the records?
Response: -1.36

Request: Bench note: what seed-corrected z-score did UUUCCUGCACCCAUAAGUC against C11orf58 show?
Response: -0.0639

Request: Requested read-out: seed-corrected z-score. Entry: AUUCGAAUUAGGUAUUGGG against MAK16
Response: 0.538

Request: Bench note: what seed-corrected z-score did UGCUGAAUAGGUCCAAUCC against HERPUD1 show?
Response: -1.46

Request: Give its seed-corrected z-score value. Item: UUAGUUCCUGGGUAUCUGC against SNAP47
Response: 1.17

Request: Look at this sequence and give its reported seed-corrected z-score. AAACCUUUUGCAUCUAUGG against GSTA12P
Response: 0.753

Request: Recorded seed-corrected z-score for AUAGGUUCCUCUAUAUGUG against ZNF396 , please?
Response: 1.53

Request: I'd like to know its seed-corrected z-score. The sequence in question is AUAGGGAUCUGAAAGUCCG against SYT4
Response: 0.582

Request: Dear colleague, I am looking for the recorded seed-corrected z-score of the following sequence: UCAUAGUCCACGAGUUUCC against BIN2
Response: 0.142

Request: Entry UAUCUGAAGAUCUAGACUC against ZNF280D : reported seed-corrected z-score = ?
Response: -0.0696

Request: Tell me the measured seed-corrected z-score of UUAUUGGUUGUGACUUUCC against TSLP , please.
Response: 0.686

Request: Look up seed-corrected z-score for this sequence: UCACGAAGAGUUGCAACUG against ALB
Response: -3.99

Request: Dear colleague, I am looking for the recorded seed-corrected z-score of the following sequence: UCCAGUUUUCGGAUCUUCC against MRPL40
Response: -2.5

Request: May I ask what seed-corrected z-score has been recorded for UAGAGUUUCGGUUUAAAUG against RBBP5 ?
Response: 0.215

Request: Quick one: seed-corrected z-score of UCUGGAUGGAGGUUUGUUC against SLC38A10 ?
Response: 1.34

---

# assayProtocol: Identification of proteins required for the processing of the EWS-FLI1 nascent transcript;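 further: robust z of luciferase light less the median z of siRNAs with the same seed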
# assaySetup: TC32 Ewing sarcoma NR0B1-luc vs CMV-luc (EWS-FLI1 target promoter against control promoter), 48 h; screened at 20 nM (by protocol)
Whole data set: some 59,000 sequences, median the read-out near -0.00055, cut for the lowest 2% near -2. Shown is part of a subset that was picked to be rich in the lowest values.
So I've got a bunch of sequences here, and I need their seed-corrected z-score values.
Reply briefly: the number, and no unit.

Request: Name the reported seed-corrected z-score value associated with the sequence UUCCUUGGGCCCUAUAUGU against FAM168A
Response: -0.129

Request: Which seed-corrected z-score value belongs to UUCAGUUUAAAAUCGUUUC against CENPL ?
Response: 0.133

Request: Any idea what seed-corrected z-score was measured for UUUAAUGUCCCAGUCCUCG against TMEM160 ?
Response: 0.858

Request: Reported seed-corrected z-score for UACAUAGCAAACAUGACCG against ATL2 : what is it?
Response: -0.859
